System: Mus musculus
PROTOCOL NOTES: Anxiolytic activity in ip dosed male albino CF-1 mouse assessed as decrease in dish reflex
Assay type: functional
CONDITION NOTES: Mus musculus, CF-1, ip; read-out: ED50
The label class 1 is reserved for ED50 strictly under 1 mg/kg; class 0 covers values equal to or above it.

Past entries and their recorded results:
[[record]]
cpd_smiles = "CNCc1nnc(C)n1-c1ccc(Cl)cc1C(=O)c1ccccc1"
label_value = "class 1"

[[record]]
cpd_smiles = "CN(C)Cc1nccn1-c1ccc(Cl)cc1C(=O)c1ccccc1Cl"
label_value = "class 0"

[[record]]
cpd_smiles = "CCN(CC)CC(=O)Nc1ccc(Cl)cc1C(=O)c1ccccc1"
label_value = "class 0"


Here is the next item to consider.
Please determine if CN(C)CCn1nc(CN(C)C)n(-c2ccc(Cl)cc2C(=O)c2ccccc2)c1=O is below 1 mg/kg in terms of ED50.
class 0

* * *

System: Mus musculus
PROTOCOL NOTES: Anxiolytic activity in ip dosed male albino CF-1 mouse assessed as decrease in dish reflex
Type: functional
CONDITION NOTES: Mus musculus, CF-1, ip; read-out: ED50
We begin with a simple list: items and their reported ED50.
The answer is to be given in mg/kg; state only the numeric part.

[[record]]
cpd_smiles = "CN(C)Cc1nnc(-c2ccncc2)n1-c1ccc(Cl)cc1C(=O)c1ccccc1Cl"
quantitative_result = 20


Consider the molecule shown here: CN(C)Cc1nn(CO)c(=O)n1-c1ccc(Cl)cc1C(=O)c1ccccc1Cl What is its recorded ED50?
1

Consider the molecule shown here: CN1C(=O)CN=C(c2ccccc2)c2cc(Cl)ccc21 What is its recorded ED50?
0.31

Consider the molecule shown here: Cc1nnc(CN2CCCC2)n1-c1ccc(Cl)cc1Cc1ccccc1 What is its recorded ED50?
40

Consider the molecule shown here: Cc1nnc(CN2CCCC2)n1-c1ccc(Cl)cc1C(=O)c1ccccc1 What is its recorded ED50?
1.3

Consider the molecule shown here: Cc1nnc(CN(C)C)n1-c1ccccc1C(=O)c1ccccc1Cl What is its recorded ED50?
22

* * *

Test system: Mus musculus
PROTOCOL NOTES: Anxiolytic activity in ip dosed male albino CF-1 mouse assessed as inhibition of nicotine-induced tonic extensor convulsions
Assay type: functional
CONDITION NOTES: Mus musculus, CF-1, ip; read-out: ED50
We begin with a simple list: items and their reported log10 ED50.
Note the log scale: values are log10 of ED50 expressed in mg/kg.

Consider the compound shown here: CN(C)CCn1nc(CN(C)C)n(-c2ccc(Cl)cc2C(=O)c2ccccc2)c1=O What is its recorded log10 ED50?
0.80

Consider the compound shown here: Cc1nnc(CN(C)C)n1-c1ccccc1C(=O)c1ccccc1Cl What is its recorded log10 ED50?
0.70

Consider the compound shown here: Cc1nnc(CN2CCCC2)n1-c1ccc(Cl)cc1C(=O)c1ccccc1 What is its recorded log10 ED50?
-0.40

Consider the compound shown here: Cc1nc(CN(C)C)n(-c2ccc(Cl)cc2C(=O)c2ccccc2Cl)c1CO What is its recorded log10 ED50?
0.00

Consider the compound shown here: CN(C)Cc1nnc(C2CC2)n1-c1ccc(Cl)cc1C(=O)c1ccccc1Cl What is its recorded log10 ED50?
-0.22

Consider the compound shown here: CNCc1nn(C)c(=O)n1-c1ccc(Cl)cc1C(=O)c1ccccc1.Cl What is its recorded log10 ED50?
-0.35

Consider the compound shown here: Cc1nnc(CN2CCCC2)n1-c1ccc(Cl)cc1Cc1ccccc1 What is its recorded log10 ED50?
1.56

Consider the compound shown here: CCN(CC)CC(=O)Nc1ccc(Cl)cc1C(=O)c1ccccc1 What is its recorded log10 ED50?
1.36

Consider the compound shown here: Cc1nnc(CN2CCCC2)n1-c1ccc(Cl)cc1C(=O)c1ccccc1Cl What is its recorded log10 ED50?
0.11
